conditions: parabacteroides distasonis, 12 h, 2 µM;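 note: drug levels quantified by LC–MS before versus after incubation with the gut bacterium to assess microbial biotransformation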
Description: The drug is tested on Parabacteroides distasonis strain: ATCC8503 for biotransformation. The drug concentrations were measured before and after a 12-h incubation by liquid-chromatography-coupled mass spectrometry (LC–MS)
Value type: Bacterial Biotransformation

INSERT INTO results (compound, reported_measurement) VALUES
  ('CC(=O)O[C@]1(C(C)=O)CC[C@H]2[C@@H]3C=C(Cl)C4=CC(=O)[C@@H]5C[C@@H]5[C@]4(C)[C@H]3CC[C@@]21C [CYPROTERONE ACETATE]', 'Compound metabolized'),
  ('CCOc1cc(CC(=O)N[C@@H](CC(C)C)c2ccccc2N2CCCCC2)ccc1C(=O)O [REPAGLINIDE]', 'Compound metabolized'),
  ('CCCCC(=O)N(Cc1ccc(-c2ccccc2-c2nnn[nH]2)cc1)[C@H](C(=O)O)C(C)C', 'Compound metabolized');
